# system tested: Gonadotropin-releasing hormone receptor (Rattus norvegicus, UniProt P30969)
# Sequence (P30969 whole entry): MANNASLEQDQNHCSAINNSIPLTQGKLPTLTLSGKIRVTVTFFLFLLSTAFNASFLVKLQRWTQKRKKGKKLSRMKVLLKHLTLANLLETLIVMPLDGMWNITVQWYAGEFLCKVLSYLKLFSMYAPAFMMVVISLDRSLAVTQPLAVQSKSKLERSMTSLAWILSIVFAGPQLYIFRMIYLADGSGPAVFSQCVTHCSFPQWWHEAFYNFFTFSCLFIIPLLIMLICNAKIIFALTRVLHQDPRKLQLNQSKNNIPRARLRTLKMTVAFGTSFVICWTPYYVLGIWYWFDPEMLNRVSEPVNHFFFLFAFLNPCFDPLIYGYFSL
# measurement notes: In vitro binding affinity to rat luteinizing hormone-releasing hormone (LHRH) receptor cloned in CHO cells
# Format: cell-based
recorded metric: Ki (nM)

A = CC[C@H]1OC(=O)[C@H](C)[C@@H](OC(=O)N2CCN(C)C2=O)[C@H](C)[C@@H](OC2O[C@H](C)C[C@H](N(C)C(C)C)[C@H]2O)[C@@](C)(OC)C[C@@H](C)C(=O)[C@H](C)[C@H]2N(CCc3ccc(Cl)cc3)C(=O)O[C@]12C (stereo not given in full)
B = CC[C@H]1OC(=O)[C@H](C)[C@@H](OC(=O)N2CCOC2=O)[C@H](C)[C@@H](OC2O[C@H](C)C[C@H](N(C)C(C)C)[C@H]2O)[C@@](C)(OC)C[C@@H](C)C(=O)[C@H](C)[C@H]2N(CCc3ccc(Cl)cc3)C(=O)O[C@]12C (stereo not given in full)
C = CC[C@H]1OC(=O)[C@H](C)[C@@H](OC(=O)C2CCCC2)[C@H](C)[C@@H](OC2O[C@H](C)C[C@H](N(C)C(C)C)[C@H]2O)[C@@](C)(OC)C[C@@H](C)C(=O)[C@H](C)[C@H]2N(CCc3ccc(Cl)cc3)C(=O)O[C@]12C (stereo not given in full)
D = CC[C@H]1OC(=O)[C@H](C)[C@@H](OC(=O)C2CCOC2)[C@H](C)[C@@H](OC2O[C@H](C)C[C@H](N(C)C(C)C)[C@H]2O)[C@@](C)(OC)C[C@@H](C)C(=O)[C@H](C)[C@H]2N(CCc3ccc(Cl)cc3)C(=O)O[C@]12C (stereo not given in full)
Sort key: Ki. Order: high to low. Scope: items listed above. // ordering of labels required in reply
A, C, D, B

A = CC[C@H]1OC(=O)[C@H](C)[C@@H](OC(=O)N2CCCC2)[C@H](C)[C@@H](OC2O[C@H](C)C[C@H](N(C)C(C)C)[C@H]2O)[C@@](C)(OC)C[C@@H](C)C(=O)[C@H](C)[C@H]2N(CCc3ccc(Cl)cc3)C(=O)O[C@]12C (stereo not given in full)
B = CC[C@H]1OC(=O)[C@H](C)[C@@H](OC(=O)N2C(=O)OC[C@@H]2C)[C@H](C)[C@@H](O[C@@H]2O[C@H](C)C[C@H](N(C)CC3CC3)[C@H]2O)[C@@](C)(OC)C[C@@H](C)C(=O)[C@H](C)[C@H]2N(CCc3ccc(Cl)c(Cl)c3)C(=O)O[C@]12C
Problem: Given the entries A and B , determine which has the lower reported Ki. // respond with label for picked entry
B
(B: 0.676 nM, A: 112 nM)

---

# system tested: Gonadotropin-releasing hormone receptor (Homo sapiens)
# Sequence (P30968 whole entry): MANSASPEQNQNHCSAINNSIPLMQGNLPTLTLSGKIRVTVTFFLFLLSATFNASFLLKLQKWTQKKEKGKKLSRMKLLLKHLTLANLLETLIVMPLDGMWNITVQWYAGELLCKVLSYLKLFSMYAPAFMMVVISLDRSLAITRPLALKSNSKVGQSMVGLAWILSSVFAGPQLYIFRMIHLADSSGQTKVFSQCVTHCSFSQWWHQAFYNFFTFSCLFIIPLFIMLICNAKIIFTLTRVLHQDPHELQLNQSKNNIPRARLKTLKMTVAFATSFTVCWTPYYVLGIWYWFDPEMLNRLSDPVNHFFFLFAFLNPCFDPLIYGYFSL
# measurement notes: In vitro binding affinity to human luteinizing hormone-releasing hormone (LHRH) receptor cloned in CHO cells
# Type: cell-based
Below: a set of entries, each annotated with reported Ki.
Dear colleague, please return just the value in nM, with no unit written.

Sample records with Ki:
CC[C@H]1OC(=O)[C@H](C)[C@@H](OC2C[C@@](C)(OC)[C@@H](O)[C@H](C)O2)[C@H](C)[C@@H](OC2O[C@H](C)C[C@H](N(C)C(C)C)[C@H]2O)[C@@](C)(OC)C[C@@H](C)C(=O)[C@H](C)[C@H]2N(CCc3ccc(Cl)cc3)C(=O)O[C@]12C (some centres not stated)    22.4
CC[C@H]1OC(=O)[C@H](C)[C@@H](OC(=O)N2C(=O)OC[C@H]2C)[C@H](C)[C@@H](OC2O[C@H](C)C[C@H](N(C)C(C)C)[C@H]2O)[C@@](C)(OC)C[C@@H](C)C(=O)[C@H](C)[C@H]2N(CCc3ccc(Cl)cc3)C(=O)O[C@]12C (some centres not stated)    49
CCC1CN(C(=O)O[C@H]2[C@H](C)[C@@H](OC3O[C@H](C)C[C@H](N(C)C(C)C)[C@H]3O)[C@@](C)(OC)C[C@@H](C)C(=O)[C@H](C)[C@H]3N(CCc4ccc(Cl)cc4)C(=O)O[C@]3(C)[C@@H](CC)OC(=O)[C@@H]2C)C(=O)O1 (some centres not stated)    562
CC[C@H]1OC(=O)[C@H](C)[C@@H](OC(=O)N2C(=O)OC[C@@H]2C)[C@H](C)[C@@H](OC2O[C@H](C)C[C@H](N(C)CC3CC3)[C@H]2O)[C@@](C)(OC)C[C@@H](C)C(=O)[C@H](C)[C@H]2N(CCc3ccc(F)c(Cl)c3)C(=O)O[C@]12C (some centres not stated)    0.331
CC[C@H]1OC(=O)[C@H](C)[C@@H](OC(=O)N2CCOC2C)[C@H](C)[C@@H](OC2O[C@H](C)C[C@H](N(C)C(C)C)[C@H]2O)[C@@](C)(OC)C[C@@H](C)C(=O)[C@H](C)[C@H]2N(CCc3ccc(Cl)cc3)C(=O)O[C@]12C (some centres not stated)    794

I have this molecule here, CC[C@H]1OC(=O)[C@H](C)[C@@H](OC(=O)N2C(=O)OC[C@@H]2C)[C@H](C)[C@@H](OC2O[C@H](C)C[C@H](N(C)C3CCCC3)[C@H]2O)[C@@](C)(OC)C[C@@H](C)C(=O)[C@H](C)[C@H]2N(CCc3ccc(Cl)c(Cl)c3)C(=O)O[C@]12C (some centres not stated) , and I need its recorded Ki.
5.62

I have this molecule here, CC[C@H]1COC(=O)N1C(=O)O[C@H]1[C@H](C)[C@@H](OC2O[C@H](C)C[C@H](N(C)C(C)C)[C@H]2O)[C@@](C)(OC)C[C@@H](C)C(=O)[C@H](C)[C@H]2N(CCc3ccc(Cl)cc3)C(=O)O[C@]2(C)[C@@H](CC)OC(=O)[C@@H]1C (some centres not stated) , and I need its recorded Ki.
66.1

---

# system tested: Gonadotropin-releasing hormone receptor (Rattus norvegicus)
# Sequence (P30969 whole entry): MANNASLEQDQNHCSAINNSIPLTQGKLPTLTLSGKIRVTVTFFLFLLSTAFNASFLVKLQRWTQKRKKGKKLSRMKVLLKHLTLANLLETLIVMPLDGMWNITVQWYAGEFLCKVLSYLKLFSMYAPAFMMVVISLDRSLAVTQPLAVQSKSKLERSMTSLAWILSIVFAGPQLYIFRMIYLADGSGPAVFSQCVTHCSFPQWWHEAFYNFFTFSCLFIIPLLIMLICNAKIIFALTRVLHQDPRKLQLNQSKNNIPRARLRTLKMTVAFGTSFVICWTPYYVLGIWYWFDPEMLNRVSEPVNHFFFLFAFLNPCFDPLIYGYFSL
# measurement notes: In vitro binding affinity to rat luteinizing hormone-releasing hormone (LHRH) receptor cloned in CHO cells
pKi: −log10 of the molar value.
recorded metric: pKi

Sample records with pKi:
CC[C@H]1OC(=O)[C@H](C)[C@@H](OC(=O)N2C(=O)OC[C@@H]2C)[C@H](C)[C@@H](OC2O[C@H](C)C[C@H](N(C)C(C)C)[C@H]2O)[C@@](C)(OC)C[C@@H](C)C(=O)[C@H](C)[C@H]2N(CCc3ccc(Cl)c(Cl)c3)C(=O)O[C@]12C (some centres undefined)    9.63
CC[C@H]1COC(=O)N1C(=O)O[C@H]1[C@H](C)[C@@H](OC2O[C@H](C)C[C@H](N(C)C(C)C)[C@H]2O)[C@@](C)(OC)C[C@@H](C)C(=O)[C@H](C)[C@H]2N(CCc3ccc(Cl)cc3)C(=O)O[C@]2(C)[C@@H](CC)OC(=O)[C@@H]1C (some centres undefined)    8.20
CC[C@H]1OC(=O)[C@H](C)[C@@H](OC(=O)N2C(=O)OC[C@H]2CC(C)C)[C@H](C)[C@@H](OC2O[C@H](C)C[C@H](N(C)C(C)C)[C@H]2O)[C@@](C)(OC)C[C@@H](C)C(=O)[C@H](C)[C@H]2N(CCc3ccc(Cl)cc3)C(=O)O[C@]12C (some centres undefined)    6.16

P = CC[C@H]1OC(=O)[C@H](C)[C@@H](OC(=O)N2C(=O)OCC2(C)C)[C@H](C)[C@@H](OC2O[C@H](C)C[C@H](N(C)C(C)C)[C@H]2O)[C@@](C)(OC)C[C@@H](C)C(=O)[C@H](C)[C@H]2N(CCc3ccc(Cl)cc3)C(=O)O[C@]12C (some centres undefined)
Q = CC[C@H]1OC(=O)[C@H](C)[C@@H](O)[C@H](C)[C@@H](OC2O[C@H](C)C[C@H](N(C)C(C)C)[C@H]2O)[C@@](C)(OC)C[C@@H](C)C(=O)[C@H](C)[C@H]2N(CCc3ccc(Cl)cc3)C(=O)O[C@]12C (some centres undefined)
Problem: Given the entries P and Q , determine which has the lower reported pKi. // respond with label for picked entry
Q
(Q: 5.60, P: 8.05)
